- testSystem: full-length hepatitis C viral protein NS3•4A (Hepatitis C virus genotype 1a)
- Construct: hexa-histidine (N); made in house; host or cells: Sf9 insect cells (baculovirus, pVL1392)
- testDescription: biochemical
- Parameters: species or system HCV sub-type strain 1a
- appliedConditions: Enzyme Assay 2 (HCV NS3 Peptide Cleavage Assay) activity, apparent Ki class
measuredMetric: Ki

> print(dat)
                             chemicalstring         result
1  CCC[C@H](NC(=O)[C@@H]1C[C@]2(CC(c3cc(Cl)c4c(c3)OCCO4)=NO2)CN1C(=O)[C@@H](NC(=O)CC1CCCCC1)C(C)(C)C)C(=O)C(=O)NC       < 100 nM
2  CCC[C@H](NC(=O)[C@@H]1C[C@]2(CC(c3cccc(Cl)c3)=NO2)CN1C(=O)[C@@H](NC(=O)CC1CCCCC1)C(C)(C)C)C(=O)C(=O)NC       < 100 nM
3  CCC[C@H](NC(=O)[C@@H]1C[C@]2(CC(c3cccc(Cl)c3)=NO2)CN1C(=O)[C@@H](NC(=O)CC1CCCCC1)C(C)(C)C)C(=O)C(=O)NCc1cccc(-n2cccn2)c1  100 to 500 nM
4  CNC(=O)C(=O)[C@H](CC1CC1)NC(=O)[C@@H]1C[C@]2(CC(c3cc(Cl)c4c(c3)OCCO4)=NO2)CN1C(=O)[C@@H](NC(=O)CC1CCCCC1)C(C)(C)C       < 100 nM
5  CCC[C@H](NC(=O)[C@@H]1C[C@]2(CC(c3cc(C)c(OC)c(Cl)c3)=NO2)CN1C(=O)[C@@H](NC(=O)OC(C)(C)C)C(C)(C)C)C(=O)C(=O)NC       < 100 nM

====

The following molecules are listed with their measured pKi values.
- testSystem: HCV NS3 protease domain (Hepatitis C virus genotype 1b, UniProt Q9WMX2)
- Construct: The first 181 amino acids of NS3 (residues 1027-1207 of the viral polyprotein); hexa-histidine (C); made in house; host or cells: E. coli BL21/DE3 pLysS
- testDescription: biochemical
- appliedConditions: Enzyme Assay 1 (HCV NS3 Protease Domain Peptide Cleavage Assay) activity, apparent Ki class
pKi: −log10 of the molar value.
measuredMetric: pKi

molecule	measuredMetric	result
CCC[C@H](NC(=O)[C@@H]1C[C@]2(CC(c3cccc(Cl)c3)=NO2)CN1C(=O)[C@@H](NC(=O)CC1CCCCC1)C(C)(C)C)C(=O)C(=O)N[C@@H](C)c1cccc(OC)c1 [Compound 255]	pKi	6.30 to 7.00
CCC[C@H](NC(=O)[C@@H]1C[C@]2(CC(c3cccnc3OC)=NO2)CN1C(=O)[C@@H](NC(=O)CC1CCCCC1)C(C)(C)C)C(=O)C(=O)NC1CC1 [Compound 469]	pKi	< 6.30
CCC[C@H](NC(=O)[C@@H]1C[C@]2(CC(c3cccc(Cl)c3)=NO2)CN1C(=O)[C@@H](NC(=O)OCc1cc(F)ccc1F)C(C)(C)C)C(=O)C(=O)NC1CC1 [Compound 561]	pKi	6.30 to 7.00

====

Ki by entry:
- testSystem: full-length hepatitis C viral protein NS3•4A (Hepatitis C virus genotype 1a, UniProt P27958)
- Construct: hexa-histidine (N); made in house; host or cells: Sf9 insect cells (baculovirus, pVL1392)
- testDescription: biochemical
- Set-up: species or system HCV sub-type strain 1a
- appliedConditions: Enzyme Assay 2 (HCV NS3 Peptide Cleavage Assay) activity, apparent Ki class

chemicalString	Ki
CCC[C@H](NC(=O)[C@@H]1C[C@]2(CC(c3cc(C)c(OC)c(C)c3)=NO2)CN1C(=O)[C@@H](NC(=O)CC1CCCCCC1)C(C)(C)C)C(=O)C(N)=O	< 0.1 µM
CCC[C@H](NC(=O)[C@@H]1C[C@]2(CC(c3cccc(Cl)c3)=NO2)CN1C(=O)[C@@H](NC(=O)CC1CCCCC1)C(C)(C)C)C(=O)C(=O)NCCc1c[nH]c2cc(OC)ccc12	0.1 to 0.5 µM
CCC[C@H](NC(=O)[C@@H]1C[C@]2(CC(c3cccc(Cl)c3)=NO2)CN1C(=O)[C@@H](NC(=O)CC1CCCCC1)C(C)(C)C)C(=O)C(=O)N1CCCCC1	> 0.5 µM
C=CCOC(=O)N[C@H](C(=O)N1C[C@@]2(CC(c3cccc(Cl)c3)=NO2)C[C@H]1C(=O)N[C@]1(C(=O)NS(=O)(=O)C2CC2)C[C@H]1C=C)C(C)(C)C	< 0.1 µM
CCC[C@H](NC(=O)[C@@H]1C[C@]2(CC(c3cc(Cl)cc4c3OCC4)=NO2)CN1C(=O)[C@@H](NC(=O)CC1CCCCC1)C(C)(C)C)C(=O)C(=O)NC1CC1	< 0.1 µM
CCC[C@H](NC(=O)[C@@H]1C[C@]2(CC(c3cc(C)c(OCC)c(C)c3)=NO2)CN1C(=O)[C@@H](NC(=O)CC1CCCCC1)C(C)(C)C)C(=O)C(=O)NC1CC1	< 0.1 µM
CCC[C@H](NC(=O)[C@@H]1C[C@]2(CC(c3cccc(Cl)c3)=NO2)CN1C(=O)[C@@H](NC(=O)CC1CCCCC1)C(C)(C)C)C(=O)C(=O)N1CCC[C@H]1COC	> 0.5 µM
CCC[C@H](NC(=O)[C@@H]1C[C@]2(CC(c3cccc(Cl)c3)=NO2)CN1C(=O)CCn1c(=O)oc2ccccc21)C(=O)C(=O)NC1CC1	> 0.5 µM
COc1c(C)cc(C2=NO[C@]3(C2)C[C@@H](C(=O)N[C@@H](CC2CC2)C(=O)C(=O)NC2CC2)N(C(=O)[C@@H](NC(=O)OC(C)(C)C)C(C)(C)C)C3)cc1C	< 0.1 µM
CC(C)(C)[C@H](NC(=O)CC1CCCCCC1)C(=O)N1C[C@@]2(CC(c3cccc4cccnc34)=NO2)C[C@H]1C(=O)N[C@@H](CC1CC1)C(=O)C(N)=O	< 0.1 µM
CCC[C@H](NC(=O)[C@@H]1C[C@]2(CC(c3cc(Cl)c(OC)cc3C)=NO2)CN1C(=O)[C@@H](NC(=O)OC1CCCC1)C(C)(C)C)C(=O)C(N)=O	0.1 to 0.5 µM
